experiment: yeast display, Sf9 membrane polyspecificity reagent, FACS + sequencing; frameworks hold sequencing errors
reported.metric: polyreactivity (PSR sort gate)

# example entries with known answers
[
  {
    "query.sequence": "QVQLVESGGGLVQAGGSLRLSCAASGSTLYRYAMGWYRQAPGKEREFVAAISVSGARTYYADSVKGRFTISRDNAKNTVYLQMNSLKPEDTAVYYCAARGGYQYDYWGQGTQVTVSS",
    "polyreactivity (PSR sort gate)": "high polyreactivity"
  },
  {
    "query.sequence": "QVQLVESGGGLVQAGGSLRLRCAASGRTFFVYTMGWYRQAPGKERELVAAITSDTSTTYADSVKGRFTISRDNAKNTVYLQMISLKPEDTAVYYCAAEGYVGYYDYDYWGQGTQVTVSS",
    "polyreactivity (PSR sort gate)": "low polyreactivity"
  },
  {
    "query.sequence": "QVQLEESGGGLVQAGGSLRLSCAASGSIFVYYAMGWYRQAPGKERELVAAISSSGTSTYYADSVKGRFTISRDNAKNTVYLQMNSLKPEDTAVYYCATTRRYAYRGGHNYWGQGTQVTVSS",
    "polyreactivity (PSR sort gate)": "high polyreactivity"
  },
  {
    "query.sequence": "QVQLVESGGGLVQAGGSLRLSCAASGSIFQKNAMGWYRQAPGKERELVATIRWSGGRTYYADSVKGRFTISRDNAKNTVYLQMNSLKPEDTAVYYCNAGYKGDYDYWGQGTQVTVSS",
    "polyreactivity (PSR sort gate)": "high polyreactivity"
  },
  {
    "query.sequence": "QVQLVESGGGLVQAGGSLRISCAASGFTFHTYAMGWYRQAPGKERELVAAIDSSGGITYYADSVKGRFTISRDNAKNTVYLQMTSLKPEDTAVYYCAAVFLLFGFEWSYDYWGQGTQVTVSS",
    "polyreactivity (PSR sort gate)": "low polyreactivity"
  },
  {
    "query.sequence": "QVHLVESGGGLVQAGGCLRLSCAASGSIFSVHAMGWYRQAPVKERELVAAISGDGDSTYYADSVKGRFTISRDNAKNTVYLQMNSLKPEDTAVYYCAVEPNVYFSVFVLFPSDYWGQGSQVTVSS",
    "polyreactivity (PSR sort gate)": "low polyreactivity"
  }
]

Q: Specify polyreactivity (PSR sort gate) for QVQLVESGGGLVQAGGSLRLSCAASGGIFFLYAMGWYRQAPGKERELVAAIRQDGGSTYYADSVKGRFTISRDNAKNTVYLQMNSLKPEDTAVYYCNAGYVKTGLEYYYWGQGTQVTVSS and stop.
Result: low polyreactivity

Q: Specify polyreactivity (PSR sort gate) for QVQLVDSGGGLVQAGGSLRLSCASSGRIFTKYSMGLYRQAPGKERELVAGISGSGTITYYADSVKGRFTISRDNAKNTVYLQMNSLKPVDSAVYYCNAGRVTNRTPRYDYWGQGTQVSVSS and stop.
Result: high polyreactivity

Q: Specify polyreactivity (PSR sort gate) for QVQLVESGGGLVQAGGSLRLSCAASGSIFVLNAMGWYRQAPGKERELVAAITNVGSTYYADSVKGRFTISRDNAKNTVYLQMNSLKPEDTAVYYCVAKGHLYSGGYEYYYWGQGTQVTVSS and stop.
Result: low polyreactivity

Q: Specify polyreactivity (PSR sort gate) for QVQLVESGGGLVQAGGSLRLSCAASGFIFRYYAMGWYRQAPGKERELVAAINASGGRTYYADSVKGRFTISRDNARNTVYFQMNSLKPEDSAVYYCAAYRSYQTFDYWGQGTQVTVSS and stop.
Result: high polyreactivity

Q: Specify polyreactivity (PSR sort gate) for QVQLVESGGGLVQAGGSLRLICAASGRTFYSKTMGWSRQAPGKEREFVAAIPSIVGSTYYADSVKGRFTISRDNAKITVYFKMNSLKPEDTAVYYCAVTDYYSYQLRYDSSGQGTQVTVSS and stop.
Result: low polyreactivity

###

assay: yeast display, Sf9 membrane polyspecificity reagent, FACS + sequencing; frameworks hold sequencing errors
reported.metric: polyreactivity (PSR sort gate)

# example entries with known answers
[
  {
    "query.sequence": "QVQLVESGGGLVQAGGSLRLSCAASGRTIASYTMGWYRQAPGKERELVAAISKSGGSTYYADSVKGRFTISRDNAKNTVYLQMNSLKPEDTAVYYCAAGVPFWFWFEMDYWGQGTQVTVSS",
    "polyreactivity (PSR sort gate)": "high polyreactivity"
  },
  {
    "query.sequence": "QVQLVESGGGLVQAGGSLRLSCAASGRIFYGNAMGWYRQAPGKEREWVAAISSGTSTNYADSVKGRFTISRDNAKNTVFLQMNSLKPEDTAVYYCADGSYSRYLYSLYFDFDYWGQGTQVTVSS",
    "polyreactivity (PSR sort gate)": "low polyreactivity"
  },
  {
    "query.sequence": "QVQLVESGGGLVLAGGSLRLSCAASGSTFVQNAMGWYRQAHGKERELVAAITFGGGSTYYADSVKGRFTISRDNAKNTVYLQMNSLKPEDTAVYYCAVEVGNPQLAYSYDYWGQGTQVTVSS",
    "polyreactivity (PSR sort gate)": "low polyreactivity"
  },
  {
    "query.sequence": "QVQLVESGVGLVQAGGSLRLSCAASGIILYRYSMGWYRQAPGKEREFGAAISRTGASTYYADSVKGRFTISRDNAKKSVYLQMNSRKPEDTAVYYCDVKALDQARYGKSGYWGQGTQVSVSS",
    "polyreactivity (PSR sort gate)": "high polyreactivity"
  }
]

Q: Specify polyreactivity (PSR sort gate) for QVQLVESGGGLVQAGGSLRLSCAASGITFKPNTMGWYRQAPGKERELVAAIDWSGSSTYYADSVKGRFTISRDNAKNTVYLHMNSLKPEDTAVYYCAADEYEYFWSYDYWGQGTQVTVSS and stop.
Result: low polyreactivity

###

assay: yeast display, Sf9 membrane polyspecificity reagent, FACS + sequencing; frameworks hold sequencing errors
reported.metric: polyreactivity (PSR sort gate)

# example entries with known answers
[
  {
    "query.sequence": "QVQLVESGGGVVQAGGSLRLSCAASGRIFVRNAMGWYRQAPGKERELVAAISRSGGSTSYADSVKGRFTISRDNAKTTVYLQMNSLKPEDTAVYDCAARYARYQYQYDYWGQGTQVTVSS",
    "polyreactivity (PSR sort gate)": "high polyreactivity"
  },
  {
    "query.sequence": "QVQLVESGGGLVQAGGSLRLSCAASGRIFWANAMGWYRQAPGKERELVATISRSGGTTYYADSVKGRFTISRDNAKNTVYLQMNSLKPEATAVYYCAAEDWSLYDYGDRLWYSPYYYWGQGTQVTVSS",
    "polyreactivity (PSR sort gate)": "high polyreactivity"
  },
  {
    "query.sequence": "QVQLVESGGGLVQAGGSLRLSCAASGRIFYSYGMGWYRQAPGKERELVASITISGGGSTYYADSVKGRFTISRDNAKNTVYLQMNSLKPEDTAVYYCAATRTVWKYIYDYWGQGTQVTVSS",
    "polyreactivity (PSR sort gate)": "high polyreactivity"
  },
  {
    "query.sequence": "QVQLVESGGGLVQAGGSLRLSCAASGRIFYANAMGWYRQAPGKERELVASISTTGDSTYYADSVKGRFTISRDNAKNTDYLQMNSLKPEDTAVYYCNTRGSEYLWYGYDYWGQGTQVTVSS",
    "polyreactivity (PSR sort gate)": "low polyreactivity"
  },
  {
    "query.sequence": "HVQLVESGGGLVQAGGSLRLSCAASGFIIGYYAMGWYRQAPGKERELVASITWSTTSTYYADSVKGRFTISRDNAKNTVYLQMNSLKPEDTAVYYCAADLQSKLPSSIYIGDYWGQGTQVTVSS",
    "polyreactivity (PSR sort gate)": "low polyreactivity"
  }
]

Q: Specify polyreactivity (PSR sort gate) for QVQLVESGGGLVQAGGSLRLSCAASGRIFQYNAMGWYRQAPGKDRELVAAIRRGGGSTYYADSVKGRFTISRDNAKNTVYLQMNSLKPEDTAVYYCAARRKRVSFYPEYDYWGQGTQVTVSS and stop.
Result: low polyreactivity

Q: Specify polyreactivity (PSR sort gate) for QVQLVESGGGLVQAGGSLRLSCAASGSTFQQYAMGWYRQAPGKERELVAAISWRGGSTYYADSVKGRFTISRDNAKNTVYFQMNSLKPEDTAFYYCAARYQPGGFSRYDYYYWGQGTQVTVSS and stop.
Result: high polyreactivity

Q: Specify polyreactivity (PSR sort gate) for QVQLVESGGGLVQAGGSLRLSCAASGSTFRAYAMGWYRQAPGKERELVAAISSGGSTYYADSVKGRFTISRDNAKITVYLQMNCLKPEDTAVYHCAKGWYYVSPYGYRKGVYYWGQGTKVTVSS and stop.
Result: high polyreactivity

Q: Specify polyreactivity (PSR sort gate) for QVQLVESGGGLVQAGGSLRISCAASGFIFRYYAMGWYRQAPGKERELVARITNGGSTKYSDSVKGRFTISRDNAKTTVYLQMNSLKPEDTAVYYCNTDGLVRNGPFFSWGQGTQVTVSS and stop.
Result: low polyreactivity

Q: Specify polyreactivity (PSR sort gate) for QVQLVESGGGLVQAGGSLRLSCAASGITFTSYVMGWYRQAPGKERELVAAIRWSGGRTYYADSVKGRFTISRDNAKNTVYLQLNSLKPEDTAVYYCNRVTRSHVDYWGQGTQVTVSS and stop.
Result: high polyreactivity

Q: Specify polyreactivity (PSR sort gate) for QVQLVESGGGLDQAGGSLRLSCAASGFIFFRYAMGWYRQAPRKEREMVAAISSSGGSTYYADSVKGRFTISRDNAKNTVYLQMNSLKPEDTAVYFCAAPRYPIFVGLGKDYWGQGTQVTVSS and stop.
Result: high polyreactivity
